Entry source: patent CN110840830A

Parameter: 混合淋巴细胞反应(MLR), CD4+ T细胞增殖 (cck8), EC50. Scope: all listed entries.
Target: T1, 细胞表面CTLA-4抗原 (CTLA-4 on cells) (UniProt P16410 36-223, limits assumed)
T1 sequence (looked up): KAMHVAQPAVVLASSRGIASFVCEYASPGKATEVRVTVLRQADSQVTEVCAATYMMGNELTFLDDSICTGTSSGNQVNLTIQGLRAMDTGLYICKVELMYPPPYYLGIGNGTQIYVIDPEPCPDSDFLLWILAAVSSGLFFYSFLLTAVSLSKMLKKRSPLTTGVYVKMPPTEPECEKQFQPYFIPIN
Test: cell-based or functional assay
observable: 混合淋巴细胞反应(MLR), CD4+ T细胞增殖 (cck8), EC50

全抗N-2 (antibody, human IgG1, kappa, V domains shown, also called 抗CTLA-4全抗体N-2) VH: QVQLVESGGGVVQPGRSLRLSCAASGFTFSSIFKRWVRQAPGKGLEWVTFISYDGLDHINGDSVKGRFTISRDNSKNTLYLQMNSLRAEDTAIYYCARRYRWWGKAMDYWGQGTLVTVSS VL: DIVMTQSPLSLPVTPGEPASISCKSSQSVIDSKGYTYLGWYLQKPGQSPQLLIYLGTQKSSGVPDRFSGSGSGTDFTLKISRVEAEDVGVYYCLQRGHIPITFGQGTKLEIKR = 0.00831 µM
全抗N-3 (antibody, human IgG1, kappa, V domains shown, also called 抗CTLA-4全抗体N-3) VH: QVQLVESGGGVVQPGRSLRLSCAASGFTFSGIFSSWVRQAPGKGLEWVTFISYDSLKQKDGDSVKGRFTISRDNSKNTLYLQMNSLRAEDTAIYYCARRYRWWGKAMDYWGQGTLVTVSS VL: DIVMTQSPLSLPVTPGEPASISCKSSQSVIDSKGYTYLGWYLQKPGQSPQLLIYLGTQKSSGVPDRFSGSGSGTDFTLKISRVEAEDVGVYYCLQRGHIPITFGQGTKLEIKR = 0.0142 µM
全抗N-8 (antibody, human IgG1, kappa, V domains shown, also called 抗CTLA-4全抗体N-8) VH: QVQLVESGGGVVQPGRSLRLSCAASGFTFSGFSICWVRQAPGKGLEWVTFISYDGLLFLIADSVKGRFTISRDNSKNTLYLQMNSLRAEDTAIYYCARRYRWWGKAMDYWGQGTLVTVSS VL: DIVMTQSPLSLPVTPGEPASISCRSSQTVFDSHGQTYLQWYLQKPGQSPQLLIYGASRQVSGVPDRFSGSGSGTDFTLKISRVEAEDVGVYYCMQVWHLPITFGQGTKLEIKR = 0.00732 µM
全抗N-4 (antibody, human IgG1, kappa, V domains shown, also called 抗CTLA-4全抗体N-4) VH: QVQLVESGGGVVQPGRSLRLSCAASGFTFSAFYNPWVRQAPGKGLEWVTFISYDGVYFHFGDSVKGRFTISRDNSKNTLYLQMNSLRAEDTAIYYCARRYRWWGKAMDYWGQGTLVTVSS VL: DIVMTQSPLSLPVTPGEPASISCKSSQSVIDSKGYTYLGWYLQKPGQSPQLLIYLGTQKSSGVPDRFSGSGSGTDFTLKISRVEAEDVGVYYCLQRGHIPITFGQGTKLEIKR = 0.0154 µM
